Test system: Escherichia coli
method-notes: Antimicrobial activity against TolC-deficient Escherichia coli ARC524 W3110 harboring mutant by CLSI dilution method
Type: functional
Reported MIC values follow for various compounds
Output spec: scalar in µM, unitless text.

// solved cases for MIC follow
>>> assay_value("CC(C)N1CCN(Cc2ccc(C#Cc3ccc(OCC4(C(=O)NO)CCOCC4)cc3)cc2)CC1")
12.5
>>> assay_value("O=C(NO)C1(CSc2ccc(Oc3ccc(Cl)cc3)cc2)CCOCC1")
50
>>> assay_value("COc1ccc(CNCc2ccc(C#Cc3ccc(OCC4(C(=O)NO)CCOCC4)cc3)cc2)cc1")
12.5

With those in mind, consider the next compound.
Could you tell me which MIC is on file for `CC(=O)N1CCN(Cc2ccc(C#Cc3ccc(OCC4(C(=O)NO)CCOCC4)cc3)cc2)CC1` ? 0.39
